- system_tested: Polyunsaturated fatty acid 5-lipoxygenase (Homo sapiens, UniProt P09917)
- Sequence (P09917 whole entry): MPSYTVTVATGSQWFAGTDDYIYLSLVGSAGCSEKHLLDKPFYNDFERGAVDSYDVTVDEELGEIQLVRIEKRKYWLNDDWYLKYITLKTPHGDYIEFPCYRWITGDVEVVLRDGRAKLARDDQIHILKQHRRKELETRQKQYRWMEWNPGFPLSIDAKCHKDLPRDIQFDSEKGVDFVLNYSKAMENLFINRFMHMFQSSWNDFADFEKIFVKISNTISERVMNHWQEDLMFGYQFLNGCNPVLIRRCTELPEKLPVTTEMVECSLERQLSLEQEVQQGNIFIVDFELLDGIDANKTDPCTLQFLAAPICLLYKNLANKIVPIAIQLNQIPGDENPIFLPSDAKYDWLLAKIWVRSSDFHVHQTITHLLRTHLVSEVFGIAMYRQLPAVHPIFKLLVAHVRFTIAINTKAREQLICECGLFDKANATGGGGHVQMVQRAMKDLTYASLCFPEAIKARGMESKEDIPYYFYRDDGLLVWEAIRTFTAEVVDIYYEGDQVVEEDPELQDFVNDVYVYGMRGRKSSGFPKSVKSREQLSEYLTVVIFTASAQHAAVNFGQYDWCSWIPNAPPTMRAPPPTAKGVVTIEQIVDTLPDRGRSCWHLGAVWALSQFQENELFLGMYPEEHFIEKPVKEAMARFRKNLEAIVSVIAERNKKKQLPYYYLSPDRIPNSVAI
- method_summary: Inhibition of recombinant human 5-LOX expressed in Escherichia coli BL21 using arachidonic acid as substrate by UV-vis spectrophotometric method
IC50 strictly less than 3000 nM = t. Otherwise f.

Query: Is IC50 strictly under 3000 nM for the entry `COc1ccc(-c2nc(N(c3ccccc3)c3ccccc3)sc2C(=O)c2ccccc2)cc1` ?
Result: t

Query: Is IC50 strictly under 3000 nM for the entry `O=C(c1ccccc1)c1sc(N2CCOCC2)nc1-c1ccccc1` ?
Result: t

Query: Is IC50 strictly under 3000 nM for the entry `COc1ccc(C(=O)NC(=S)N2CCCCC2)cc1` ?
Result: f

Query: Is IC50 strictly under 3000 nM for the entry `O=C(c1ccccc1)c1sc(N2CCCCC2)nc1-c1ccccc1` ?
Result: f

Query: Is IC50 strictly under 3000 nM for the entry `O=C(NC(=S)N1CCCCC1)c1ccc(F)cc1` ?
Result: f

Query: Is IC50 strictly under 3000 nM for the entry `O=C(NC(=S)N1CCN(c2ccccc2)CC1)c1ccccc1` ?
Result: t

Origin of values: ChEMBL document CHEMBL4265912
